system: COVID-19 (nCoV-2019, SARS-CoV2) Mpro (Severe acute respiratory syndrome coronavirus 2, UniProt P0DTD1)
assay-name: COVID-19 (nCoV-2019, SARS-CoV2) Mpro enzymatic assay
Format: biochemical
condition-notes: 25 nM Mpro, 25 μM substrate; read-out: COVID-19 Mpro IC50
pIC50: −log10 of the molar value.
readout-label: pIC50

CC(C)(C)c1ccc(N(C(=O)[C@H]2CCCN2C#N)C(C(=O)NCC(=O)N2CCOCC2)c2cccnc2)cc1 (stereo partly drawn)	> 5.70
CC1(C)CN(C#N)[C@@H](C(=O)N(c2ccc(S(F)(F)(F)(F)F)cc2)C(C(=O)NC2CCC(F)(F)CC2)c2cncc(F)c2)CO1 (single isomer, unassigned) [1086b Isomer 1]	> 5.70

Next, consider the following molecule.
Note to self: pIC50 recorded for CC(C)(C)c1ccc(N(C(=O)[C@H]2C[C@@H](O)CN2C#N)C(C(=O)NC2CCCC2)c2cccnc2)cc1 (single isomer, unassigned) [595 Isomer 2] was > 5.70

###

Below is a list of entries, each paired with its recorded EC50 value.
system: 229E Mpro (Human coronavirus 229E)
Sequence (P0C6X1 2966-3267): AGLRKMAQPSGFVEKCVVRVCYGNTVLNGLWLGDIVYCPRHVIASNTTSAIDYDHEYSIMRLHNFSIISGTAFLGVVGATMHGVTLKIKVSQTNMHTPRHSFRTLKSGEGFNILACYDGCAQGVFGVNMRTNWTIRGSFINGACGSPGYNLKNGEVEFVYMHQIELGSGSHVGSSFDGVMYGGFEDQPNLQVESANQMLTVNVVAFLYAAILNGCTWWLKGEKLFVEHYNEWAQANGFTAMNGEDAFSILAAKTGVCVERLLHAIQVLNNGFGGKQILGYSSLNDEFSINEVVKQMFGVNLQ
assay-name: 229E Mpro enzymatic assay (standard methods, SARS-CoV2 Mpro assay given as exemplary)
Format: biochemical, human coronavirus (HCov) 229E
condition-notes: 229E Mpro EC50

CO[C@@H]1C[C@H](C(=O)N(c2ccc(S(F)(F)(F)(F)F)cc2)C(C)(C(=O)NC2CCC(F)(F)CC2)c2cccnc2)N(C#N)C1 (single isomer, unassigned) [1259 Isomer 1]	< 2 µM
COc1ccc(NC(=O)C(c2cccnc2)N(C(=O)[C@H]2C[C@@H](OC)CN2C#N)c2ccc(S(F)(F)(F)(F)F)cc2)cn1 (single isomer, unassigned) [1180 Isomer 2]	< 2 µM
CO[C@@H]1C[C@H](C(=O)N(c2ccc(S(F)(F)(F)(F)F)cc2)C(C(=O)N(C)CC(=O)NC2CC2)c2cccnc2)N(C#N)C1 (single isomer, unassigned)	< 2 µM
N#CC1(C(=O)N(c2ccc(S(F)(F)(F)(F)F)cc2)C(C(=O)NC2CCC(F)(F)CC2)c2cncc(F)c2)CC1 (centres unmarked) [Compound 1289]	> 30 µM

Next, consider the following molecule.
Sample N#CN1CC(=O)NCC1C(=O)N(c1ccc(S(F)(F)(F)(F)F)cc1)C(C(=O)NC1CCC(F)(F)CC1)c1cncc(F)c1 (single isomer, unassigned) [Compound 1160 Isomer 1] , system: 229E Mpro (Human coronavirus 229E). Its EC50 is < 2 µM

###

system: COVID-19 (nCoV-2019, SARS-CoV2) Mpro (Severe acute respiratory syndrome coronavirus 2, UniProt P0DTD1)
assay-name: COVID-19 (nCoV-2019, SARS-CoV2) Mpro enzymatic assay
Type: biochemical
condition-notes: 25 nM Mpro, 25 μM substrate; read-out: COVID-19 Mpro IC50
pIC50: −log10 of the molar value.
readout-label: pIC50

N#CN1C[C@H](O)C[C@@H]1C(=O)N(c1ccc(C2(C(F)(F)F)CC2)cc1)C(C(=O)NC1CCCCC1)c1cccnc1 (single isomer, unassigned) [735 Isomer 2]	5.00 to 5.70
CC(C)(C)c1ccc(N(C(=O)[C@@H]2CCCN2C#N)C(C(=O)NC2CCCCC2)c2cccnc2)cc1 (stereo partly drawn) [Compound 130c]	< 4.52
N#CN1C[C@H](F)C[C@@H]1C(=O)N(c1ccc(S(F)(F)(F)(F)F)cc1)C(C(=O)NC1CCC(F)(F)CC1)c1cncc(F)c1 (single isomer, unassigned) [Compound 1098 Isomer 1]	5.00 to 5.70
N#CC1(C(=O)N(c2ccc(S(F)(F)(F)(F)F)cc2)C(C(=O)NC2CCC(F)(F)CC2)c2cncc(F)c2)CC1 (stereo not drawn) [Compound 1289]	< 4.52
CO[C@@H]1C[C@H](C(=O)N(c2ccc(C(C)(C)C)cc2)C(C)(C(=O)NC2CCC(F)(F)CC2)c2cnccn2)N(C#N)C1 (single isomer, unassigned) [1198 Isomer 2]	> 5.70
N#CN1C[C@H](O)C[C@@H]1C(=O)N(c1ccc(C(F)(C(F)(F)F)C(F)(F)F)cc1)C(C(=O)NC1CCCCC1)c1cccnc1 (single isomer, unassigned) [Compound 779 Isomer 2]	5.00 to 5.70
N#CN1C[C@H]2C[C@H]2[C@@H]1C(=O)N(c1ccc(S(F)(F)(F)(F)F)cc1)C(C(=O)NC1CCC(F)(F)CC1)c1cnccc1C(F)(F)F (single isomer, unassigned) [Compound 1318 Isomer 1]	> 5.70
COCCNC(=O)C(c1cccnc1)N(C(=O)[C@H]1C[C@@H](O)CN1C#N)c1ccc(C(C)(C)C)cc1 (single isomer, unassigned) [627 Isomer 2]	5.00 to 5.70
C[C@H]1CN(C#N)[C@H]1C(=O)N(c1ccc(S(F)(F)(F)(F)F)cc1)C(C(=O)NC1CCC(F)(F)CC1)c1cncc(F)c1 (single isomer, unassigned) [1210 Isomer 1]	4.52 to 5.00
CC(C)(C)c1ccc(N(C(=O)[C@H]2CC(F)(F)CN2C#N)C(C(=O)NC2CCCCC2)c2cccnc2)cc1 (single isomer, unassigned) [Compound 876 Isomer 2]	4.52 to 5.00

Next, consider the following compound.
Note to self: pIC50 recorded for CC1(C)CN(C#N)[C@@H](C(=O)N(c2ccc(C(C)(C)C)cc2)C(C(=O)NC2CCOCC2)c2cccnc2)CO1 (single isomer, unassigned) [1141 Isomer 2] was > 5.70

###

system: COVID-19 (nCoV-2019, SARS-CoV2) Mpro (Severe acute respiratory syndrome coronavirus 2)
assay-name: COVID-19 (nCoV-2019, SARS-CoV2) Mpro enzymatic assay
Format: biochemical
condition-notes: 25 nM Mpro, 25 μM substrate; read-out: COVID-19 Mpro IC50
pIC50: −log10 of the molar value.
readout-label: pIC50

Some solved cases for reference:
N#CN1C[C@H](O)C[C@@H]1C(=O)N(c1ccc(C2CC2)cc1)C(C(=O)NC1CCCCC1)c1cccnc1 (single isomer, unassigned) [723 Isomer 1]	> 5.70
CC(C)(C)c1ccc(N(C(=O)C2CCC(F)(F)CN2C#N)C(C(=O)NC2CCCCC2)c2cccnc2)cc1 (single isomer, unassigned) [885 Isomer 2]	> 5.70
N#CN1C[C@@H](OC(F)F)C[C@@H]1C(=O)N(c1ccc(S(F)(F)(F)(F)F)cc1)C(C(=O)NC1CCC(F)(F)CC1)c1cncc(F)c1 (single isomer, unassigned) [Compound 823a Isomer 1]	> 5.70
CC(C)(C)c1ccc(N(C(=O)[C@H]2CC(=O)CN2C#N)C(C(=O)NC2CCCCC2)c2cccnc2)cc1 (single isomer, unassigned) [Compound 278 Isomer 2]	5.00 to 5.70
CC(C)(C)c1ccc(NC2(C#N)CCCc3ccncc32)cc1 (centres unmarked) [Compound 690a]	< 4.52
C[C@]1(O)CN[C@@H](C(=O)N(c2ccc(S(F)(F)(F)(F)F)cc2)C(C(=O)NC2CCC(F)(F)CC2)c2cnnc3ccccc23)C1 (some centres unmarked) [Compound 711a]	> 5.70
CC(C)(C)c1ccc(N(C(=O)[C@H]2C[C@@H](O)CN2C#N)C(C(=O)NC2CCCCC2)c2cncc(Cl)c2)cc1 (single isomer, unassigned) [675 Isomer 1]	> 5.70
CC(C)(C)c1ccc(N(C(=O)[C@H]2C[C@@H](O)CN2C#N)C(C(=O)NCCN2CCOCC2)c2cccnc2)cc1 (single isomer, unassigned) [587 Isomer 1]	> 5.70
CO[C@@H]1C[C@H](C(=O)N(c2ccc(S(F)(F)(F)(F)F)cc2)C(C)(C(=O)NC2CCC(F)(F)CC2)c2cnccn2)N(C#N)C1 (single isomer, unassigned) [1299 Isomer 2]	> 5.70
CC(C)(C)c1ccc(N(C(=O)[C@H]2CC(F)(F)CN2C#N)C(C(=O)NC2CCCCC2)c2cccnc2)cc1 (single isomer, unassigned) [Compound 876 Isomer 1]	5.00 to 5.70

Note to self: pIC50 recorded for CC(C)(C)c1ccc(N(C(=O)[C@H]2C[C@@H](F)CN2C#N)C(C(=O)NC2CCCCC2)c2cccnc2)cc1 (single isomer, unassigned) [Compound 870 Isomer 2] was 5.00 to 5.70

###

system: UniProt P0DTD1
assay-name: COVID-19 (nCoV-2019, SARS-CoV2) Mpro enzymatic assay
Format: biochemical
condition-notes: 25 nM Mpro, 25 μM substrate; read-out: COVID-19 Mpro IC50
pIC50: −log10 of the molar value.
readout-label: pIC50

N#CN1C[C@@H](F)C[C@@H]1C(=O)N(c1ccc(S(F)(F)(F)(F)F)cc1)C(C(=O)NC1CCC(F)(F)CC1)c1cncc(F)c1 (single isomer, unassigned) [Compound 1099 Isomer 1]	> 5.70
CC1(C)CCN(C#N)[C@H]1C(=O)N(c1ccc(S(F)(F)(F)(F)F)cc1)C(C(=O)NC1CCC(F)(F)CC1)c1cncc(F)c1 (single isomer, unassigned) [1094 Isomer 2]	4.52 to 5.00
CO[C@@H]1C[C@H](C(=O)N(c2ccc(S(F)(F)(F)(F)F)cc2)C(C(=O)NC2CC3CCC(C2)O3)c2cccnc2)N(C#N)C1 (single isomer, unassigned) [1187 Isomer 1]	> 5.70

Note to self: pIC50 recorded for CO[C@@H]1C[C@H](C(=O)N(c2ccc(S(F)(F)(F)(F)F)cc2)C(C(=O)NC2CCOC(C)(C)C2)c2cccnc2)N(C#N)C1 (single isomer, unassigned) [1165 Isomer 1] was > 5.70

Note to self: pIC50 recorded for CO[C@@H]1C[C@H](C(=O)N(c2ccc(S(F)(F)(F)(F)F)cc2)C(C(=O)N2CCCC3(COC3)C2)c2cccnc2)N(C#N)C1 (single isomer, unassigned) [Compound 1175] was 5.00 to 5.70
